Target: full-length beta-Catenin (Uniprot ID P35222) (Homo sapiens (Human)) (UniProt P35222)
Assay Notes: fluorescence polarization competition; peptide titrated against 10 nM full-length beta-catenin + 10 nM 5FAM-TCF4(10-53)
Starred links: 1 amine or outer side, 2 acyl side, 3 side chain; linkers in the order of their positions; H or OH if unused. Positions of bridges follow the written chain, without caps; N, C: chain ends. Non-standard residues stand in square brackets, D forms with d. Primed or numbered codes have the meaning given here. PyrS2″ = (S)-3-amino-1-((pent-4-en-1-yloxy)carbonyl)pyrrolidine-3-carboxylic acid (stapling residue), C=CCCCOC(=O)N1CC[C@@](N[*:1])(C(=O)[*:2])C1; B5(4) = 2,2-bis(4-pentenyl)glycine = 2-amino-2-(pent-4-en-1-yl)hept-6-enoic acid (stitching residue), C=CCCCC(CCCC=C)(N[*:1])C(=O)[*:2]; B5(5) = 2,2-bis(4-pentenyl)glycine, 2-amino-2-(pent-4-en-1-yl)hept-6-enoic acid (stitching residue), C=CCCCC(CCCC=C)(N[*:1])C(=O)[*:2]; PyrS2 = (S)-3-amino-1-((pent-4-en-1-yloxy)carbonyl)pyrrolidine-3-carboxylic acid, C=CCCCOC(=O)N1CC[C@@](N[*:1])(C(=O)[*:2])C1; Phe(2-CF3) = N[C@@H](Cc1ccccc1C(F)(F)F)C(=O)O; Phe(2-CONH2) = NC(=O)c1ccccc1C[C@H](N)C(=O)O; Bta = N[C@@H](Cc1csc2ccccc12)C(=O)O; Lys(iPr) = CC(C)NCCCC[C@H](N)C(=O)O; αAllylPro = C=CC[C@@]1(C(=O)O)CCCN1; tBuAla = CC(C)(C)C[C@H](N)C(=O)O; Cha = N[C@@H](CC1CCCCC1)C(=O)O; hSer = N[C@@H](CCO)C(=O)O
Quantity Kind: IC50 (µM)

Examples with answers:
1) Ac-[αAllylPro]N[Cha][B5(5)]DQ[Lys(iPr)]AFN[PyrS2″]Y[Bta][hSer]-NH2 (staple 1-4, 4-11) [I-2172] | 10
2) Ac-[αAllylPro]N[Cha][B5(4)]DQ[Lys(iPr)]AFN[PyrS2″][Phe(2-CONH2)][Bta][hSer]-NH2 (staple 1-4, 4-11) [I-2168] | 0.212
3) Ac-[αAllylPro]D[tBuAla][B5(4)]DXQAFL[PyrS2][Phe(2-CF3)][Bta]A-NH2 (staple 1-4, 4-11; not fully specified (residue 6); printed as Ac-PL3-Asp-Npg-B5-Asp-[CH2CChCO2H]TriAzDap-Gln-Ala-Phe-Leu-PyrS2-2F3MeF-BztA-Ala-NH2) [I-2520] | 0.027

[I] Ac-[αAllylPro]N[Cha][B5(4)]DQ[Lys(iPr)]AFN[PyrS2″]F[Bta][hSer]-NH2 (staple 1-4, 4-11) [I-2167]
[II] Ac-[αAllylPro]N[Cha][B5(5)]DQ[Lys(iPr)]AFN[PyrS2″]Q[Bta][hSer]-NH2 (staple 1-4, 4-11) [I-2171]
[Q] Response body: label of entry with the larger IC50; valid values I , II . # respond with the chosen item's label
[A] II
(II: 10 µM, I: 0.199 µM)
